What Emax was measured for each of the following?
Test system: P. falciparum Dd2
MEASUREMENT NOTES: SYBR green I asexual blood stage proliferation assay (96 h)
Type: cell-based, Plasmodium falciparum
CONDITIONS USED: Plasmodium falciparum, DD2; Sybr Green I, 11-pt dose response, 96hr; read-out: CDD P. falciparum Sybr Green I ABS 11-pt Reconfirmation Dose Response (96hr): Maximum inhibition (%)
Reply numerically in %, unit not repeated.

Request: Recorded Emax for "Clc1ccc(C2(CNC3=NCCN3)CCCCC2)cc1" , please?
Response: 99.8

Request: Recorded Emax for Cc1ccccc1N1CCCN(CC2(O)CCCNC2)CC1 (stereo not drawn) , please?
Response: 91.2

Request: Recorded Emax for "c1ccc(C[C@H]2CN(C3CCOCC3)CC[C@H]2OCC2CC2)cc1" , please?
Response: 69.9

Request: Recorded Emax for "Fc1ccc(CN2CCC3(CC2)CCN(Cc2nccs2)CC3)cc1" , please?
Response: 71.7

Request: Recorded Emax for CC(C)c1nn(C)c(Cl)c1CNCC(O)c1cccc(F)c1 (stereo not drawn) , please?
Response: 92.5

Request: Recorded Emax for CC1CCCCN1C(=O)c1coc(COc2cccc3cnccc23)n1 (stereo not drawn) , please?
Response: 97.7

Request: Recorded Emax for CCC1CN(CC(=O)NCCN2CCCCC2)c2ccccc2S1 (stereo not drawn) , please?
Response: 74.7

Request: Recorded Emax for "OCCN1CCC(CNCc2ccc(Br)cc2)CC1" , please?
Response: 92.7

Request: Recorded Emax for "c1ccc(Sc2ccc3c(c2)OCO3)c(CNC2=NCCN2)c1" , please?
Response: 65.9

Request: Recorded Emax for "Fc1cccc(CN2CCC(c3cc4ncccc4cn3)CC2)c1F" , please?
Response: 86.9

Request: Recorded Emax for CN(CCO)Cc1cc(Cl)ccc1OCC(O)CN1CCCCCC1 (stereo not drawn) , please?
Response: 99.1

Request: Recorded Emax for CC(NCCN1CCC(N(C)C)CC1)c1ccc(Cl)s1 (stereo not drawn) , please?
Response: 89

Request: Recorded Emax for CC(O)CN1CCC(CNCc2cccc(Br)c2)CC1 (stereo not drawn) , please?
Response: 93.8

Request: Recorded Emax for Cc1ccc(CNCc2cccc3cccnc23)c(OC2CCOC2)c1 (stereo not drawn) , please?
Response: 64.7

Request: Recorded Emax for "CCc1ccc2nc(NCCCN(CCO)CCO)cc(C)c2c1" , please?
Response: 94

Request: Recorded Emax for "CN(CCO)C[C@@H]1CN(Cc2ccccc2-c2ccccc2)C[C@@H]1CO" , please?
Response: 89.1

Request: Recorded Emax for Cc1cn2c(n1)C(CNCc1ccc(C)s1)CCC2 (stereo not drawn) , please?
Response: 83.8

Request: Recorded Emax for Cc1cc(-n2cccn2)ccc1CN1CCOCC(CN(C)C)C1 (stereo not drawn) , please?
Response: 60.8

Request: Recorded Emax for "Clc1ccccc1C1(c2ccnc(CC3CC3)n2)CCNCC1" , please?
Response: 70.6

Request: Recorded Emax for "CN1CC[C@H](N(Cc2ccccc2)Cc2ccccc2)C[C@H](O)C1" , please?
Response: 73.4

Request: Recorded Emax for Cc1ccc(CNC2CC3(CCN(CCO)CC3)c3ccccc32)s1 (stereo not drawn) , please?
Response: 89.2

Request: Recorded Emax for "Fc1cccc(F)c1Cn1c(C2CCNCC2)cc2cccnc21" , please?
Response: 68.3

Request: Recorded Emax for Cc1nccn1CCCN1CCCC(c2ccccc2)C1 (stereo not drawn) , please?
Response: 93.4

Request: Recorded Emax for COCCCN1CCCN(C(C)C(=O)Nc2cccc(I)c2)CC1 (stereo not drawn) , please?
Response: 77.7

Request: Recorded Emax for "CCc1[nH]c2c(CNc3nc(C)cc(NC)n3)cc(C)cc2c1C" , please?
Response: 98

Request: Recorded Emax for "Cc1cc(F)ccc1N1CCC(N2C[C@@H](CN(C)C)[C@@H](CO)C2)CC1" , please?
Response: 90.3

Request: Recorded Emax for "c1ccc(Oc2nccc3occc23)c(CN2CCCCC2)c1" , please?
Response: 73.8

Request: Recorded Emax for "CCN(CC)CCNS(=O)(=O)c1cccc(CSC)c1" , please?
Response: 73.7

Request: Recorded Emax for NCC1CCN(C2CCN(c3ccc(-c4ccco4)cc3)CC2)C1 (stereo not drawn) , please?
Response: 95.1

Request: Recorded Emax for "CN1CCC(N(Cc2ccco2)S(=O)(=O)c2ccc(Br)cc2Cl)CC1" , please?
Response: 54.5

Request: Recorded Emax for Clc1ccc(-c2ccc(C3CNCCO3)nc2)cc1 (stereo not drawn) , please?
Response: 56.1

Request: Recorded Emax for "Cc1nc(C2CCNCC2)cc(N(C)Cc2cc3cc(F)ccc3[nH]2)n1" , please?
Response: 90.9

Request: Recorded Emax for CC(O)CN1CCC(CNCc2cccc(Cl)c2)CC1 (stereo not drawn) , please?
Response: 89.5

Request: Recorded Emax for "Clc1ccccc1C1(c2ccnc(C3CCCC3)n2)CCNCC1" , please?
Response: 76.4

Request: Recorded Emax for "CCN(CC)Cc1ccccc1NC(=O)N(C)Cc1ccccc1O" , please?
Response: 87.8

Request: Recorded Emax for "Oc1cccc2ccc(CN3CCC4(CCNCC4)C3)nc12" , please?
Response: 75.2

Request: Recorded Emax for "FC(F)(F)c1cc(C2CCNCC2)nc(-c2ccsc2)n1" , please?
Response: 60.5

Request: Recorded Emax for "Cc1ccsc1CN(Cc1cccnc1)C1CC(C)(C)NC(C)(C)C1" , please?
Response: 70.5

Request: Recorded Emax for "Cc1cccc2[nH]c(-c3cn(C4CCNCC4)nn3)nc12" , please?
Response: 72.3
